# Tested on: DU-145 prostate
# experimentDescription: NCI tumour cell line growth inhibition, 48 h
observable: TGI

Lookup: Item "N#C/C(=C\c1ccccn1)c1nc2ccccc2o1" has what recorded TGI?
Found: > 100 µM

---

# Test system: SNB-75 CNS
# experimentDescription: NCI tumour cell line growth inhibition, 48 h
Each item that follows carries a reported TGI.

- compound: "CCOC(=O)c1nc2sc(Cl)cn2c1/C=N/N=C(N)N"
  TGI: "68.8 µM"
- compound: "Fc1nc(-c2c3ccccc3c3sc4ccccc4n23)nc(N2CCOCCOCCOCCOCC2)n1"
  TGI: "5.87 µM"
- compound: "CCOc1ccc(NC(=O)/C=C/c2ccco2)cc1"
  TGI: "> 100 µM"
- compound: "Cc1c2cnccc2c(C)c2c1c1ccccc1n2CCCCCCCl"
  TGI: "> 31.6 µM"
- compound: "CC1(C)C2CCC1(C)C(NC(=O)COCCOCC(N)=O)C2 (stereo unspecified)"
  TGI: "> 100 µM"

--- query ---
Lookup: Looking for the measured TGI of CCCCCCCCC#CCCCCCCC(F)C(=O)O (stereo unspecified) , can you help?
Found: > 100 µM

---

GI50 reference
# Tested on: MDA-MB-231 breast
# experimentDescription: NCI tumour cell line growth inhibition, 48 h

// solved cases for GI50 follow
- molecule: "CCOC(=O)CCC(NC(=O)c1ccc(Oc2nc3cc(N)cc(N)c3nc2-c2ccccc2)cc1)C(=O)OCC (stereo not given)"
  GI50: "11.3 µM"
- molecule: "CCn1cnc(C[C@H](NC(=O)[C@@H](NC(=O)Nc2cc(C(F)(F)F)cc(C(F)(F)F)c2)C(C)(C)C)C(=O)OC)c1"
  GI50: "> 10 µM"
- molecule: "Cc1ccc(-c2csc3ncnc(Nc4cccc(O)c4)c23)cc1"
  GI50: "> 100 µM"
- molecule: "Cc1nc2sc(C(=O)Nc3cccc4c3OCCO4)c(N)c2cc1C(C)O (stereo not given)"
  GI50: "36.3 µM"

Lookup: Give the measured GI50 of "O=C1c2c[n+](Cc3ccccc3)ccc2-c2nc3ccccc3c3ccnc1c23" .
Found: 0.711 µM

Lookup: Further, for "Nc1ncnc2occ(-c3ccc(NC(=O)Nc4cccc(C(F)(F)F)c4)cc3)c12" ?
Found: 5.8 µM

Lookup: Follow-up entry: "C(#Cc1ccccc1C#Cc1cnccn1)c1cnccn1"
Found: 21.4 µM

Lookup: Lookup "O=[N+]([O-])c1cc2c(ccc3ccccc32)o1"
Found: 0.442 µM

Lookup: Another molecule: "COc1cccc(C2=C(c3cn(C)c4c(C)cccc34)C(=O)NC2=O)c1"
Found: 24.5 µM

Lookup: Ok, now "O=C1C=CC(=O)N1c1ccc2ccccc2c1"
Found: 16.1 µM

---

# Tested on: HCT-116 colon
# experimentDescription: NCI tumour cell line growth inhibition, 48 h; in the data active means GI50 below about 0.43 µM; inactive means the rest
Respond with a class label; see 1 = active, -1 = inactive

Use these answered entries as a reference point.
- compound: "O=C(/C=C/c1cccc(Cl)c1)c1ccccc1"
  categoryLabel: -1
- compound: "CCCCCCCCCCCCNCCCc1ccccc1"
  categoryLabel: -1
- compound: "O=C(N/N=C/c1cc(Cl)cc(Cl)c1[O-])c1ccccc1O.O=C(N/N=C/c1cc(Cl)cc(Cl)c1[O-])c1ccccc1O.[Mn+2]"
  categoryLabel: 1
- compound: "C[C@H]1CCC/C=C/[C@@H]2C[C@H](O)C[C@H]2[C@H](O)C(O)C(O)C(=O)O1 (stereo not given in full)"
  categoryLabel: -1
- compound: "O=C(NCCc1nccs1)c1cnc2c(S)cccc2c1"
  categoryLabel: -1

Lookup: Please state the recorded outcome for this compound: "COc1cccc(C2=C(c3cn(C)c4c(C)cccc34)C(=O)NC2=O)c1"
Found: -1

Lookup: // repeat for "O=C1C=CC(=O)N1c1ccc2ccccc2c1" and report
Found: -1

Lookup: Same read-out for "COc1cccc(/C=C2\COc3ccc(O)c(O)c3C2=O)c1OC" ?
Found: -1

Lookup: Moving on to "C=CC(=O)N1CCN(c2nc(OC[C@@H]3CCCN3C)nc3c(F)c(-c4nc(N)cc(C)c4C(F)(F)F)c(Cl)cc23)[C@@H](C)C1"
Found: -1

Lookup: Lookup "COc1cc(/C=C/C(=O)c2cccc(-n3cc(-c4ccccc4)[nH]c3=O)c2)ccc1O"
Found: -1

All figures here come from PubChem BioAssay (NCI).
